Value source: PubChem BioAssay (NCI)

test system: UO-31 renal; assay: NCI tumour cell line growth inhibition, 48 h
List of TGI values.

These recorded examples may help you get a feel for the data.
• O=P(O)(O)CCP(=O)(O)O = > 100 µM
• CCCCOC(=O)CNC(=O)OC/C=C/C#CC#C/C=C/COC(=O)NCC(=O)OCCCC = > 100 µM
• Cc1c(O)ccc2c(O)c(NC(=O)c3ccc4c(c3)CCC(C)(C)O4)c(=O)oc12 = > 100 µM
• O=C1c2ccccc2C(=O)N1CCn1ccc(NC(c2ccccc2)(c2ccccc2)c2ccccc2)nc1=O = 52.8 µM

// next item, TGI requested
Give recorded TGI. `COC(=O)c1ccc2c(c1)nc(NC(=O)c1ccccc1)n2CCCc1ccccc1`
> 100 µM

###

tested on: A498 renal; assay: NCI tumour cell line growth inhibition, 48 h
Outcome Measure: TGI

Below are worked cases with known answers.
• O=C1C2SC34c5c2c2ccccc2n5CCC3CCCN14 (stereo not drawn) = > 100 µM
• Cc1ccc(S(=O)(=O)c2[nH]cc(/C(=C\C3CCCCC3)[N+](=O)[O-])c2C2CCCCC2)cc1 = 0.837 µM

Now look at this one.
Could you please provide reported TGI for `O=[N+]([O-])c1ccc2[nH]c(=S)[nH]c(=S)c2c1` ? Thanks!
> 100 µM

###

test system: OVCAR-8 ovarian; test: NCI tumour cell line growth inhibition, 48 h
Outcome Measure: TGI

// worked examples, TGI included
• Cc1n(Cc2ccccc2)c2c([n+]1C)C(=O)c1ccccc1C2=O = 0.826 µM
• CCN1CCN(C(=O)[C@@]2(C)CC[C@]3(C)CC[C@]4(C)C(=CC(=O)[C@@H]5[C@@]6(C)CC[C@H](OC7C[C@@H](O)[C@@H](O)C(C)O7)C(C)(C)[C@@H]6CC[C@]54C)[C@@H]3C2)CC1 (stereo partly specified) = 6.82 µM
• COc1cc(OCc2cccc(-c3ccc(C(O)c4nccs4)cc3)c2C)cc(OC)c1C=O (stereo unspecified) = 23.6 µM
• COC(=O)C1=C(OC(=O)/C(=C/c2ccc(Cl)cc2)c2ccc(Cl)cc2)C(C(=O)OC)[C@@]2(O)[C@@H](C(=O)OC)[C@H](C)C[C@@H]1[C@@H]2C(=O)OC (stereo partly specified) = > 100 µM
• O=c1[nH]nnc2c1sc1ncccc12 = > 100 µM

Specify TGI for `COc1cccc(CC(C)=C(c2ccc(OCCN(C)C)cc2)c2ccc(OCCN(C)C)cc2)c1` , system OVCAR-8 ovarian.
6.71 µM

# return TGI of `COC(=O)c1ccc2c(c1)nc(NC(=O)c1ccccc1)n2CCCc1ccccc1` (system: OVCAR-8 ovarian)
> 100 µM

Provide TGI, tested on OVCAR-8 ovarian, for `CC1(C)S[C@@H]2[C@H](NC(=O)C3(N)CCCCC3)C(=O)N2[C@H]1C(=O)O` .
> 100 µM

For OVCAR-8 ovarian, give the measured TGI of the entry `CNCc1ccccc1-c1csc([C@@H](C)Nc2nc(C)nc3cc(OC)c(OC)cc23)c1`
7.65 µM

Tell me its TGI on OVCAR-8 ovarian: `BrC1=C(Br)C2(SCCS2)[C@H]2C[C@@H]1c1ccccc12`
> 100 µM

Report its TGI with OVCAR-8 ovarian as the test system: `O=[N+]([O-])c1cccc(C2=NN(c3ccccc3)C[N+](c3ccc(Br)cc3)=N2)c1`
> 100 µM

###

Below is a list of entries, each paired with its recorded log10 TGI value.
system: EKVX NSCLC; assay: NCI tumour cell line growth inhibition, 48 h
Remember, log10 of TGI, in µM.

* COc1ccccc1/C=N\N/C(N)=N\N=C\c1ccccc1OC | 1.16
* Cc1ccc(S(=O)(=O)c2[nH]cc(/C(=C\C3CCCCC3)[N+](=O)[O-])c2C2CCCCC2)cc1 | 0.15
* Cc1ccnc2[nH]c(-c3ccc4ccccc4c3)cc(=O)c12 | 1.43
* C[C@H]1[C@H]2[C@H]3CC[C@@H]4[C@@]5(C)CC[C@H](O)C(C)(C)[C@@H]5CC[C@@]4(C)[C@]3(C)C[C@H](O)[C@@]2(C)C[C@H]2O[C@]21C | 1.87

// next entry
State log10 TGI on EKVX NSCLC. Entry: `O=c1cc[nH]c(=O)[nH]1`
2.69

###

system: COLO 205 colon; test: NCI tumour cell line growth inhibition, 48 h; in the data active = GI50 below about 0.43 µM; inactive = the rest
Parameter call: string, one of TRUE = active, FALSE = inactive

# example entries with known answers
• N.N.N.N.O=C([O-])CCl.O=C([O-])CCl.[Co+3].[O-][Cl+3]([O-])([O-])[O-] = FALSE
• Cc1ccc(SC2c3ccc(C)cc3Oc3nc(N)c(C#N)c(N)c32)cc1 (centres undefined) = FALSE
• COc1cccc2c1C(=O)c1c(O)c3c(c(O)c1C2=O)C[C@@](O)(C(=O)CO)C[C@@H]3OC1CC(N)CC(C)O1 (some centres undefined) = TRUE

Test call for this compound, please: `COc1ccc(OC)c2c1[nH]c(=O)c1c3ccccc3cn21`
FALSE

Recorded call for `Cn1cc(C2=C(c3ccc(N)cc3)C(=O)NC2=O)c2ccccc21` ?
FALSE

Call for entry CCN(CC)CCC(CNc1ccnc2cc(Cl)ccc12)c1ccc(Cl)cc1 (centres undefined) :
FALSE

###

system: HCC-2998 colon; assay: NCI tumour cell line growth inhibition, 48 h
Each entry below lists one item and its recorded GI50 value.

Completed entries (count: 2):
• Oc1ccc(Nc2ncnc3c2sc2ncccc23)cc1 = > 33300 nM
• COc1ccc(OC)c2c1[nH]c(=O)c1c3ccccc3cn21 = 1340 nM

Specify GI50 for `NC(=O)/C=C/C(=O)c1c(Cl)cccc1Cl` and stop.
1510 nM

###

test system: BT-549 breast; test: NCI tumour cell line growth inhibition, 48 h; in the data active = GI50 below about 0.43 µM; inactive = the rest
Your answer must be one of the following: active, inactive

Reference set, count: 5
• CO/N=C(/C)c1cccc(Nc2cc(-n3nnc4ccccc43)nc3ccccc23)c1 = inactive
• COC(=O)C[C@](O)(CCCC(C)(C)O)C(=O)O[C@@H]1C(OC)=C[C@]23CCCN2CCc2cc4c(cc2[C@H]13)OCO4 = active
• Cc1cc(Cl)cc(OCCn2cc(F)cn2)c1-c1nc(N)nc2c1CN(C(=O)NCC(C)(F)F)C2 = inactive
• C/C=C(\C)C(=O)O[C@H]1C=CC(=O)O[C@H]1CCC(=O)[C@H](C)O = inactive
• CCCCC#CC1=C(Br)C(=O)OC1 = inactive

Now for another entry.
Short answer needed: outcome of this test for `CC[As](CC)SC[C@H](C)C(=O)N1CCC[C@H]1C(=O)O` ?
active

###

test system: HOP-18 NSCLC; experiment: NCI tumour cell line growth inhibition, 48 h
Overview of recorded TGI for various molecules

* O=c1cc[nH]c(=O)[nH]1 | > 1000 µM
* Cc1cn2c(=O)c3ncn(C4OC(CO)C(O)C4O)c3n(C)c2n1 (centres undefined) | > 100 µM
* CCCC(=O)OCC1OC(n2ccc(N)nc2=O)C(OC(=O)CCC)C1OC(=O)CCC (centres undefined) | > 100 µM

# input for lookup
Report TGI on HOP-18 NSCLC for this entry: OC(CC1SCCCS1)c1ccccc1 (centres undefined)
> 100 µM

###

test system: MDA-MB-435
Bench note: report the call from class 1 = active, class 0 = inactive

Study these solved cases before continuing.
• CSC1=Nc2c(c(C)c(C)n2COC(CO)CO)C2=NC(=O)C(C)N12 (stereo not given) = class 0
• CO/N=C(/C)c1cccc(Nc2cc(-n3nnc4ccccc43)nc3ccccc23)c1 = class 0
• CCCCC#CC1=C(Br)C(=O)OC1 = class 0

// param item: `O=C(Nc1ccc(Br)cc1F)c1cc(F)ccc1O` ; yields the recorded call
class 0

Field: outcome | Entry: `Oc1ccc(Nc2ncnc3c2sc2ncccc23)cc1`
class 1

Per the assay record, what outcome was assigned to `CNCc1ccccc1-c1csc([C@@H](C)Nc2nc(C)nc3cc(OC)c(OC)cc23)c1` ?
class 0

Which outcome was entered for the molecule `S=C(Nc1ccc(Cl)cc1)Nc1ccc(-c2nc3ccccc3s2)cc1` in this test?
class 0

Answer briefly: the call reported for CC(=O)OC1COC(Oc2c(C)c3c4c(c2O)[C@@H](C)CC[C@@H]4[C@@H](C)C[C@H]3C=C(C)C)C(O)C1OC(C)=O (stereo not given in full) in this assay.
class 0

For `CC/C=C\C[C@H](O)C/C=C1/C(=O)C(Cl)=C[C@@H]1C/C=C\CCCC(=O)OC` , what call appears in the results of this test?
class 1

Check the results log: what was the call for `Cn1cc(C2=C(c3ccc(N)cc3)C(=O)NC2=O)c2ccccc21` ?
class 0

###

Each item that follows carries a reported TGI.
test system: OVCAR-3 ovarian; assay: NCI tumour cell line growth inhibition, 48 h

For OVCAR-3 ovarian, give the measured TGI of the entry `N#Cc1c(NC(=O)NCc2ccccc2)sc2c1CCCCC2`
1.61 µM

State the measured TGI (OVCAR-3 ovarian) of `CC12C/C(=C\c3ccccc3)C(=O)C3C1CCCC32`
> 100 µM

Check OVCAR-3 ovarian data and give TGI for `COc1cc(-c2oc(=O)ccc2C#Cc2ccccn2)cc(OC)c1OC` .
2.76 µM

Answer briefly: TGI recorded on OVCAR-3 ovarian for `CO/N=C(\C)c1ccc(Nc2nc3ccccc3c3occc23)cc1`
96.1 µM

Specify TGI for `Nc1ccc2c(c1)C(=O)N1CCC[C@H]1C(=O)N2` , system OVCAR-3 ovarian.
> 100 µM

Provide TGI, recorded with OVCAR-3 ovarian, of `O=C1COc2cccnc2N1CCCCO`
> 100 µM

Recall the reported TGI of `Nc1ccc([N+](=O)[O-])cc1N=C/C=C/c1ccccc1` on OVCAR-3 ovarian and write it down.
26.8 µM

Please indicate recorded TGI of `C/C=C/C(CC(O)(C(F)(F)F)C(F)(F)F)=N/NC(N)=S` measured with OVCAR-3 ovarian.
> 10 µM

Quote TGI with test system OVCAR-3 ovarian for `BrC1=C(Br)C2(SCCS2)[C@H]2C[C@@H]1c1ccccc12`
> 100 µM

// fetch TGI for `CC(C)(C)OC(=O)N(CCCCN(CCCNC(=O)C(F)(F)F)C(=O)OC(C)(C)C)CCCNC(=O)C(F)(F)F` ; system: OVCAR-3 ovarian
> 100 µM

Please tell me the measured TGI for `CCCNC(=O)NNC(=O)c1c[nH]c2nc(C)ccc2c1=O` ; system: OVCAR-3 ovarian.
> 100 µM

Determine reported TGI for `CCn1c(-c2ccccc2)cs/c1=N\C(P(=O)(O)O)P(=O)(O)O` ; test system: OVCAR-3 ovarian.
> 100 µM
